Data provenance is patent US20170283458A1.

biological target: collagen; assay: SILY binding to collagen (Biacore surface plasmon resonance); details: calculated from the on-off binding kinetics; collagen immobilized on CM-3 chip
QUANTITY_KIND: pKd
# reply with the number alone; pKd is -log10 of concentration in mol/L

Query block: If you can, please state the reported pKd value of `RRANAALKAGELYKSILYGC` .
Result block: 5.92
